Test: Permeability across apical to basolateral side in human Caco2 cell membrane
Assay type: ADME, cell-based
Conditions: Caco-2, read-out: permeability
measurement type: Papp A→B (×10⁻⁶ cm/s)
Please reply with the bare figure in ×10⁻⁶ cm/s and do not write the unit itself.

Sample CSc1cn2c(-c3cn[nH]c3)cnc2c(Nc2cc(C)ns2)n1 — what was its Papp A→B?
63.3

====

Molecular target: Mitogen-activated protein kinase 1 (Homo sapiens)
Sequence (P28482 whole entry): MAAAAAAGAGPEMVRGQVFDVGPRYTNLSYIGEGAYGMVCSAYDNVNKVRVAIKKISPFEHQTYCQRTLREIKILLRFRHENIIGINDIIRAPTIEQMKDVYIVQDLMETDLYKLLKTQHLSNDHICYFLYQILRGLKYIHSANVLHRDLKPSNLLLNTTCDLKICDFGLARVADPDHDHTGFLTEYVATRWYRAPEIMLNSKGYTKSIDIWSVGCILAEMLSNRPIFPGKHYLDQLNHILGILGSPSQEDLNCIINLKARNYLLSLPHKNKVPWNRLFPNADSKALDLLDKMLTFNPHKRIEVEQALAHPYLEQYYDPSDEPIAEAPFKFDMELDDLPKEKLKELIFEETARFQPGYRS
Experiment: Inhibition of ERK2
measurement type: IC50

Recall the recorded IC50 for CSc1cn2c(-c3cn[nH]c3)cnc2c(Nc2cc(C)ns2)n1 with Mitogen-activated protein kinase 1 (Homo sapiens) and state it.
> 10 µM

====

Experiment: Oral bioavailability in mouse
Format: ADME, organism-based
Details: in vivo
measurement type: bioavailability (%)
Please reply with the bare figure in % and do not write the unit itself.

Sample CSc1cn2c(-c3cn[nH]c3)cnc2c(Nc2cc(C)ns2)n1 — what was its bioavailability?
4

The measured values listed here are drawn from ChEMBL document CHEMBL1799927.
